Measured mass density of individual entries
conditions: 333.15 K; 15000 kPa; Liquid; Vibrating tube method
Your answer is read as kg/m3, so omit the unit and give the number.

Lookup: # mass density lookup, item CCn1cc[n+](C)c1.O=S(=O)([O-])C(F)(F)F [1-ethyl-3-methylimidazolium trifluoromethanesulfonate]
Found: 1352.3

Lookup: Which value of mass density has been reported for "CCCC[N+]1(C)CCCC1.O=S(=O)([N-]S(=O)(=O)C(F)(F)F)C(F)(F)F" in the records?
Found: 1382

Lookup: For the molecule shown here, "CCC[N+]1(C)CCCC1.O=S(=O)([N-]S(=O)(=O)C(F)(F)F)C(F)(F)F" , give the reported mass density.
Found: 1410.8

Lookup: Bench note: what mass density did "CCC[N+]1(C)CCCCC1.O=S(=O)([N-]S(=O)(=O)C(F)(F)F)C(F)(F)F" show?
Found: 1388.5

Now for a further molecule.
Lookup: Item "CCC[n+]1cccc(C)c1.O=S(=O)([N-]S(=O)(=O)C(F)(F)F)C(F)(F)F" has what recorded mass density?
Found: 1425.9

###

settings: 313.15 K; 4000 kPa; Liquid; Vibrating tube method
± gives the expanded uncertainty stated by the source.
# mass density per entry
Answers without a unit are incomplete; give the number and then its unit.

These recorded examples may help you get a feel for the data.
Lookup: Give its mass density value. Item: "CCCC[N+]1(C)CCCC1.O=S(=O)([N-]S(=O)(=O)C(F)(F)F)C(F)(F)F"
Found: 1392.5 ± 12 kg/m3

Lookup: mass density for "CCC[N+]1(C)CCCCC1.O=S(=O)([N-]S(=O)(=O)C(F)(F)F)C(F)(F)F" ?
Found: 1400.2 ± 12 kg/m3

Lookup: Give its mass density value. Item: CCn1cc[n+](C)c1.O=S(=O)([O-])C(F)(F)F [1-ethyl-3-methylimidazolium trifluoromethanesulfonate]
Found: 1363.5 ± 12 kg/m3

Lookup: Consider the molecule "CCC[n+]1cccc(C)c1.O=S(=O)([N-]S(=O)(=O)C(F)(F)F)C(F)(F)F" and give its measured mass density.
Found: 1437.3 ± 12 kg/m3

For the next question, use this molecule.
Lookup: So what's the measured mass density for this one? "CCC[N+]1(C)CCCC1.O=S(=O)([N-]S(=O)(=O)C(F)(F)F)C(F)(F)F"
Found: 1421.7 ± 12 kg/m3

###

In this section, each of the compounds is paired with its reported mass density.
details: 293.15 K; 20000 kPa; Liquid; Vibrating tube method
± gives the expanded uncertainty stated by the source.
Value and unit, in that order.

Lookup: Which mass density value is on record for "CCC[n+]1cccc(C)c1.O=S(=O)([N-]S(=O)(=O)C(F)(F)F)C(F)(F)F" ?
Found: 1469.6 ± 12 kg/m3

With those in mind, consider the next compound.
Lookup: Name the recorded mass density for "CCC[N+]1(C)CCCC1.O=S(=O)([N-]S(=O)(=O)C(F)(F)F)C(F)(F)F" .
Found: 1452.6 ± 12 kg/m3

###

settings: 333.15 K; 2000 kPa; Liquid; Vibrating tube method
This section presents compounds with their documented mass density values.
Report the value in kg/m3 with no unit label.

Lookup: For "CCCC[N+]1(C)CCCC1.O=S(=O)([N-]S(=O)(=O)C(F)(F)F)C(F)(F)F" , what is its reported mass density?
Found: 1371.7

Lookup: Consider the compound shown here: "CCC[N+]1(C)CCCCC1.O=S(=O)([N-]S(=O)(=O)C(F)(F)F)C(F)(F)F" What is its recorded mass density?
Found: 1378.6

Lookup: I would be grateful if you could share the reported mass density for "CCC[n+]1cccc(C)c1.O=S(=O)([N-]S(=O)(=O)C(F)(F)F)C(F)(F)F" .
Found: 1415.3

Lookup: Query: mass density; subject: CCn1cc[n+](C)c1.O=S(=O)([O-])C(F)(F)F [1-ethyl-3-methylimidazolium trifluoromethanesulfonate]
Found: 1344

Kindly review the next compound as well.
Lookup: I'd like to know its mass density. The compound in question is "CCC[N+]1(C)CCCC1.O=S(=O)([N-]S(=O)(=O)C(F)(F)F)C(F)(F)F"
Found: 1400.5

###

details: 353.15 K; 7500 kPa; Liquid; Vibrating tube method
The reader will find reported mass density values listed item by item below.
Unit kg/m3 implied. Number only.

As a guide, the following entries are already answered.
Lookup: Recorded mass density for "CCC[N+]1(C)CCCC1.O=S(=O)([N-]S(=O)(=O)C(F)(F)F)C(F)(F)F" , please?
Found: 1386.4

Lookup: Please give the measured mass density for this molecule: CCn1cc[n+](C)c1.O=S(=O)([O-])C(F)(F)F [1-ethyl-3-methylimidazolium trifluoromethanesulfonate]
Found: 1330.3

Lookup: Need mass density, item "CCC[N+]1(C)CCCCC1.O=S(=O)([N-]S(=O)(=O)C(F)(F)F)C(F)(F)F"
Found: 1364.7

Lookup: Quick one: mass density for "CCC[n+]1cccc(C)c1.O=S(=O)([N-]S(=O)(=O)C(F)(F)F)C(F)(F)F" ?
Found: 1400.2

# context switch: different molecule, same mass density
Lookup: Dear colleague, I am looking for the recorded mass density of the following molecule: "CCCC[N+]1(C)CCCC1.O=S(=O)([N-]S(=O)(=O)C(F)(F)F)C(F)(F)F"
Found: 1357.9

###

conditions: 333.15 K; 25000 kPa; Liquid; Vibrating tube method
mass density values, listed per item
State the answer as a number, implicitly in kg/m3.

Some compounds with known mass density results, for comparison:
Lookup: Record request: mass density value, item "CCC[N+]1(C)CCCCC1.O=S(=O)([N-]S(=O)(=O)C(F)(F)F)C(F)(F)F"
Found: 1396

Lookup: Please report the recorded mass density for "CCC[N+]1(C)CCCC1.O=S(=O)([N-]S(=O)(=O)C(F)(F)F)C(F)(F)F" .
Found: 1418.3

New cases:
Lookup: Form field: reported mass density of CCn1cc[n+](C)c1.O=S(=O)([O-])C(F)(F)F [1-ethyl-3-methylimidazolium trifluoromethanesulfonate]
Found: 1358.4

Lookup: // returns reported mass density for input "CCC[n+]1cccc(C)c1.O=S(=O)([N-]S(=O)(=O)C(F)(F)F)C(F)(F)F"
Found: 1433.7

Lookup: Please report the recorded mass density for "CCCC[N+]1(C)CCCC1.O=S(=O)([N-]S(=O)(=O)C(F)(F)F)C(F)(F)F" .
Found: 1389.5

###

conditions: 393.15 K; 3000 kPa; Liquid; Vibrating tube method
Assay Metric: mass density (kg/m3)
Form entry: value (kg/m3) — number only.

Some compounds with known mass density results, for comparison:
Lookup: Record request: mass density value, item "CCCC[N+]1(C)CCCC1.O=S(=O)([N-]S(=O)(=O)C(F)(F)F)C(F)(F)F"
Found: 1318.1

Lookup: Which measured mass density value corresponds to "CCC[N+]1(C)CCCCC1.O=S(=O)([N-]S(=O)(=O)C(F)(F)F)C(F)(F)F" ?
Found: 1325.3

Lookup: Which mass density value is on record for "CCC[n+]1cccc(C)c1.O=S(=O)([N-]S(=O)(=O)C(F)(F)F)C(F)(F)F" ?
Found: 1357.9

Lookup: Please give the measured mass density for this compound: CCn1cc[n+](C)c1.O=S(=O)([O-])C(F)(F)F [1-ethyl-3-methylimidazolium trifluoromethanesulfonate]
Found: 1293.2

# ---- query compound ----
Lookup: Param item = "CCC[N+]1(C)CCCC1.O=S(=O)([N-]S(=O)(=O)C(F)(F)F)C(F)(F)F" ; retrieve measured mass density.
Found: 1345.8

###

Listing of recorded mass density by entry.
conditions: 313.15 K; 20000 kPa; Liquid; Vibrating tube method
// units = kg/m3; emit number, no label

Lookup: Please look up its mass density: "CCC[n+]1cccc(C)c1.O=S(=O)([N-]S(=O)(=O)C(F)(F)F)C(F)(F)F"
Found: 1449.5

Lookup: Which mass density is listed for CCn1cc[n+](C)c1.O=S(=O)([O-])C(F)(F)F [1-ethyl-3-methylimidazolium trifluoromethanesulfonate] ?
Found: 1373.1

Lookup: So what does the record say about mass density for "CCC[N+]1(C)CCCCC1.O=S(=O)([N-]S(=O)(=O)C(F)(F)F)C(F)(F)F" ?
Found: 1411.7

Next:
Lookup: What does the data say about its mass density? Entry: "CCC[N+]1(C)CCCC1.O=S(=O)([N-]S(=O)(=O)C(F)(F)F)C(F)(F)F"
Found: 1433.4

Lookup: Name the recorded mass density for "CCCC[N+]1(C)CCCC1.O=S(=O)([N-]S(=O)(=O)C(F)(F)F)C(F)(F)F" .
Found: 1404.3

###

Parameter mass density: see the listing below.
details: 323.15 K; 20000 kPa; Liquid; Vibrating tube method
Response body: numeric value in kg/m3, unit text excluded.

Use the examples below as a reference point.
Lookup: Recorded mass density of "CCC[n+]1cccc(C)c1.O=S(=O)([N-]S(=O)(=O)C(F)(F)F)C(F)(F)F" , please.
Found: 1439.5

Lookup: What measured mass density goes with "CCCC[N+]1(C)CCCC1.O=S(=O)([N-]S(=O)(=O)C(F)(F)F)C(F)(F)F" ?
Found: 1394.9

Lookup: Given "CCC[N+]1(C)CCCCC1.O=S(=O)([N-]S(=O)(=O)C(F)(F)F)C(F)(F)F" , state its recorded mass density.
Found: 1401.9

---
Lookup: Which mass density is listed for "CCC[N+]1(C)CCCC1.O=S(=O)([N-]S(=O)(=O)C(F)(F)F)C(F)(F)F" ?
Found: 1423.8

Lookup: Looking for the measured mass density of CCn1cc[n+](C)c1.O=S(=O)([O-])C(F)(F)F [1-ethyl-3-methylimidazolium trifluoromethanesulfonate] , can you help?
Found: 1364.2
